# Test system: PIK4CB
# Construct: gene PI4KB
# conditionParameters: concentration: 1 μM, replicates: in singlicate; n = 1;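 further: KINOMEscan kinase panel screen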
Items are presented alongside their recorded %Inh.
// return numeric value only (unit: %, not printed)

Solved entries:
> print(dat)
                                   compound  system  testresult
1  CS(=O)(=O)c1cccc(CNc2nc(Nc3ccc4c(c3)CCC(=O)N4)ncc2C(F)(F)F)c1  PIK4CB           0
2  NCCC(NC(=O)c1cc(Br)c(-c2ccnc3[nH]ccc23)s1)c1ccccc1.O=C(O)C(F)(F)F.O=C(O)C(F)(F)F (stereo not drawn)  PIK4CB           8
3                     CN(C)c1ncnc2nc[nH]c12  PIK4CB           1
4  CC(C)c1nc(-c2ccc(F)c(NS(=O)(=O)c3c(F)cccc3F)c2)c(-c2ccnc(Nc3ccc(N4CCOCC4)nc3)n2)s1  PIK4CB           0
5  Nc1ncc(-c2cn[nH]c2)c2scc(-c3ccc4c(c3)CCN4C(=O)Cc3ccccc3)c12  PIK4CB          25
6  Cn1cc(-c2ccc3c(c2)CCN3C(=O)Cc2cc(F)cc(C(F)(F)F)c2)c2c(N)ncnc21  PIK4CB           0

Input line: Identify measured %Inh associated with `N#Cc1cnc2cc(-c3cnc(CNCCN4CCOCC4)s3)ccc2c1Nc1ccc(Oc2ccccc2)cc1`
Output line: 11

Input line: State its %Inh for this compound: `CN(c1ccc(F)c(NC(=O)c2cccc(OC(C)(C)C#N)c2Cl)c1)c1ccc2nc(NC(=O)C3CC3)sc2n1`
Output line: 0

Input line: Recall and state the measured %Inh for `Cc1ccc(C)c(NC(=O)Nc2ccc(C)c(-c3ccc(C(=O)Nc4ccncc4)cc3)c2)c1` .
Output line: 8

* * *

The following compounds are shown together with reported %Inh values.
# Tested on: FRK
# conditionParameters: concentration: 1 μM, replicates: in singlicate; n = 1
Numbers only; they are read as %.

Check out these entries, answers already filled in.
> print(dat)
                                   compound  system  testresult
1  COC(=O)Nc1nc2cc(Oc3ccc(NC(=O)Nc4cccc(SC)c4)cc3)ccc2[nH]1.Cl [GW697999]     FRK          48
2  Cl.Cl.NCC(NC(=O)c1cc(-c2cccnc2)c(-c2ccnc3[nH]ccc23)s1)c1ccccc1 (centres unmarked) [GSK1323434]     FRK          15
3  CC(C)NCC(Cc1ccccc1)NC(=O)c1cc(Br)c(-c2ccnc3[nH]ccc23)s1.Cl.Cl (centres unmarked) [GSK1383281]     FRK           0
4  CCNC(=O)/C=C/c1n[nH]c2cc(Sc3ccccc3C(=O)NC)ccc12     FRK          31
5  O=C(O)C(F)(F)F.O=c1[nH]ccc2nc(N[C@@H]3CCNC3)nc(Nc3cc(Cl)cc(Cl)c3)c12 [GSK2188764]     FRK           4

Input line: Answer with reported %Inh of Cc1ccc(O)cc1Nc1ccnc2ccc(C(C)(C)C)cc12 [GW856805]
Output line: 98.9

Input line: State its %Inh for this compound: COc1ccc(C2=C(Nc3cccc(O)c3)C(=O)NC2=O)cc1 [SB-390766]
Output line: 11

Input line: Name the recorded %Inh of the item CN1CCN(Cc2ccc(NC(=O)Nc3ccc(N(C)c4ccnc(Nc5ccc(CS(C)(=O)=O)cc5)n4)cc3)cc2)CC1.Cl [GW827654] in your answer.
Output line: 84
